# System: UACC-62 melanoma
# run description: NCI tumour cell line growth inhibition, 48 h
Consider the following compounds and their measured TGI readings.
Dear colleague, please return just the value in µM, with no unit written.

See these solved cases before continuing.
compound | TGI, µM
[N-]=[N+]=NCc1nc(N)c2c3c(sc2n1)CCCC3 | 23.6
COc1ccc2c(c1)c[n+](C)c1c3cc(OC)c(OC)cc3ccc21 | 23.9

Then there is this compound:
# input Note TGI for the compound shown: C=CCN1CCC23c4c5ccc(O)c4OC2C(=NN=C2CCC4(O)C6Cc7ccc(O)c8c7C4(CCN6CC=C)C2O8)CCC3(O)C1C5 (stereo not given)
# output 44.4

====

# Tested on: HL-60(TB) leukemia
# run description: NCI tumour cell line growth inhibition, 48 h; in the data active = GI50 below about 0.43 µM; inactive = the rest
Bench note: report the call from active, inactive

Use the examples below as a reference point.
compound | test target | label value
COc1ccc(-c2nnc(N3CCN(C(=O)CN4CCN(c5ccccc5)CC4)CC3)nc2-c2ccc(OC)cc2)cc1 | HL-60(TB) leukemia | inactive
O=C(Nc1cc(C(F)(F)F)ccc1Cl)c1cccc(NC2=C(Cl)C(=O)N(Cc3ccccc3)C2=O)c1 | HL-60(TB) leukemia | inactive
CSc1nc(NC2OC(COC(C)=O)C(OC(C)=O)C(OC(C)=O)C2OC(C)=O)c(N=CC=Nc2c(NC3OC(COC(C)=O)C(OC(C)=O)C(OC(C)=O)C3OC(C)=O)nc(SC)n(C)c2=O)c(=O)n1C (centres undefined) | HL-60(TB) leukemia | inactive
C=CCc1ccc(O)c(-c2ccc(O)c(CC=C)c2)c1 | HL-60(TB) leukemia | inactive
CC1CCN(C(=O)OCc2nc3nc(Cl)nc(N4CCOCC4)c3[nH]2)CC1 | HL-60(TB) leukemia | active

# input Please state the recorded outcome for this compound: Clc1nc(Cl)nc(Nc2cccc3ccccc23)n1
# output inactive

# input Please state the recorded outcome for this compound: CN1CC[C@@H](c2c(O)cc(O)c3c(=O)cc(-c4ccc(C(F)(F)F)cc4Cl)oc23)[C@@H]1CO
# output inactive

# input Please state the recorded outcome for this compound: COC(=O)C1=CN(CC2=CC(=O)C(C)=CC2=O)C=C(C(=O)OC)C1c1cccc(OC)c1
# output inactive

# input Please state the recorded outcome for this compound: O=C(NNc1ccccc1)C(=O)NNc1ccccc1
# output inactive

====

# System: HCT-116 colon
# run description: NCI tumour cell line growth inhibition, 48 h
Consider the following compounds and their measured GI50 readings.

compound | measurement
CC(C(=O)O)c1cccc(Oc2ccccc2)c1 (stereo unspecified) | > 100 µM

# input Note GI50 for the compound shown: Cc1ccc2c(C3C(C#N)=C(N)Oc4cc5ccccc5cc43)cc(=O)oc2c1 (stereo unspecified)
# output 0.531 µM

# input Note GI50 for the compound shown: CN(C)CCC(=O)C(=Cc1ccc(O)cc1)C(=O)CCN(C)C
# output 44.8 µM

# input Note GI50 for the compound shown: CC(C)=CCc1cc(O)cc2c1OC(C=C(C)C)C1=C2C(=O)C2=C(C1=O)S(=O)(=O)CCN2 (stereo unspecified)
# output 2.97 µM

# input Note GI50 for the compound shown: CCOC(=O)/C=C/c1ccc(C#Cc2ccccc2)cc1
# output > 100 µM

# input Note GI50 for the compound shown: COc1ccc(Cn2c(N)c(S(=O)(=O)c3ccc(Cl)cc3)c3nc(C#N)c(C#N)nc32)cc1
# output > 50 µM
